B1: TPR 5TU (parent)
chain: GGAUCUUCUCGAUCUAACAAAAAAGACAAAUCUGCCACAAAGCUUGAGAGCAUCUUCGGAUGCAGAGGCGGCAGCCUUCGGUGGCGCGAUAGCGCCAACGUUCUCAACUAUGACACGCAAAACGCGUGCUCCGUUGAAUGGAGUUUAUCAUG

Variants of: B1
Protocol Summary: polymerase ribozyme fitness, log enrichment relative to wild type (log ratio); higher = more active; in vitro selection for triplet polymerase activity
Variants at the floor of the assay were thinned out.
Quantity Kind: polymerase ribozyme fitness (log ratio)

Mutant: C69U C87U G92C A150G
Bound Sign: =
Result Value: -3.27

Mutant: G46C C149U
Bound Sign: =
Result Value: -2.58

Mutant: G11A A89G G94A C105G G112C
Bound Sign: ≤
Result Value: -4.2

Mutant: C8A C35G C51U G59A A73G C76A C85G A138U U151C
Bound Sign: ≤
Result Value: -4.2

Mutant: A29C A39G U139A
Bound Sign: ≤
Result Value: -4.2

Mutant: U44A A52G C85A C118U
Bound Sign: ≤
Result Value: -4.2

Mutant: C14A A21C A22C
Bound Sign: =
Result Value: -0.829

Mutant: C57G U82C C93A C95U C116U
Bound Sign: =
Result Value: -3.34

Mutant: A21C C93U A97U C116U C123U
Bound Sign: =
Result Value: -0.404

Mutant: U6A A28G A73G C93G C99A C131A
Bound Sign: =
Result Value: -4.19

Mutant: G46A C85U A89G C96A A106C U145C U146G
Bound Sign: ≤
Result Value: -4.2

Mutant: G58U C95A C149U
Bound Sign: =
Result Value: -0.828

Mutant: A73C C85A A110C A119U G136U
Bound Sign: ≤
Result Value: -4.2

Mutant: U44A U90G C93U G143A U151G
Bound Sign: ≤
Result Value: -4.2

Mutant: A24U C54A G58A G84A A120G G126U
Bound Sign: =
Result Value: -1.19

Mutant: A16G A23U A29G A37U C43U C79G C99A A122G
Bound Sign: ≤
Result Value: -4.2

Mutant: C38U A73U C93U A107U G117U
Bound Sign: ≤
Result Value: -4.2

These data points were gathered from the RNAGym collection of RNA variant scans (doi:10.1073/pnas.2313332121).
